Procedure details: Tissue distribution in SD rats after IV dose
Assay type: in vivo
Condition parameters: Sprague-Dawley, rat; liver, kidney, lung, spleen; 5 mg/kg IV; read-out: tissue/plasma exposure ratios
Numbered stars: 1 amine (or outer) side, 2 acyl side, 3 side chain; on linkers, the order of the positions; unused ones are H or OH. Bridge positions count the residues as written; N and C are the ends. Square brackets hold non-standard residues; d marks the D form. Peptide text beside a SMILES is read from it. * marks the point of attachment. ξ: configuration not given here. Orn(4R-OH,5R-OCH2CH2NMe3+) = C[N+](C)(C)CCO[C@@H](N[*:3])[C@H](O)C[C@H](N[*:1])C(=O)[*:2]; pTerphenylCO(4''-OnC5H11) = CCCCCOc1ccc(-c2ccc(-c3ccc(C(=O)*)cc3)cc2)cc1; hTyr(3S-OH,4S-OH) = N[C@H](C(=O)O)[C@H](O)[C@@H](O)c1ccc(O)cc1; X1 = C[C@H]1CN([*:1])C(C(=O)[*:2])C1O; Hyp = O=C(O)[C@@H]1C[C@@H](O)CN1; ξT = CC(O)C(N)C(=O)O
Measurement name: Kp

For CCCCCOc1ccc(-c2ccc(-c3ccc(C(=O)N[C@H]4C[C@@H](O)[C@@H](OCC[N+](C)(C)C)NC(=O)C5C(O)[C@@H](C)CN5C(=O)[C@H]([C@@H](C)O)NC(=O)[C@H]([C@H](O)[C@@H](O)c5ccc(O)cc5)NC(=O)[C@@H]5C[C@@H](O)CN5C(=O)C(C(C)O)NC4=O)cc3)cc2)cc1 (stereo partly drawn) [CD101] ({pTerphenylCO(4''-OnC5H11)}-[Orn(4R-OH,5R-OCH2CH2NMe3+)][ξT][Hyp][hTyr(3S-OH,4S-OH)]T[X1]; lactam 1-C) the molecule record lists Kp as ~4

---

Procedure details: Pharmacokinetic profile in mice after subcutaneous dose
Type: in vivo
Condition parameters: mouse, plasma, 10 mg/kg SC
Numbered stars: 1 amine (or outer) side, 2 acyl side, 3 side chain; on linkers, the order of the positions; unused ones are H or OH. Bridge positions count the residues as written; N and C are the ends. Square brackets hold non-standard residues; d marks the D form. Peptide text beside a SMILES is read from it. * marks the point of attachment. ξ: configuration not given here. Orn(4R-OH,5R-OCH2CH2NMe3+) = C[N+](C)(C)CCO[C@@H](N[*:3])[C@H](O)C[C@H](N[*:1])C(=O)[*:2]; pTerphenylCO(4''-OnC5H11) = CCCCCOc1ccc(-c2ccc(-c3ccc(C(=O)*)cc3)cc2)cc1; hTyr(3S-OH,4S-OH) = N[C@H](C(=O)O)[C@H](O)[C@@H](O)c1ccc(O)cc1; X1 = C[C@H]1CN([*:1])C(C(=O)[*:2])C1O; Hyp = O=C(O)[C@@H]1C[C@@H](O)CN1; ξT = CC(O)C(N)C(=O)O
Measurement name: half-life

For CCCCCOc1ccc(-c2ccc(-c3ccc(C(=O)N[C@H]4C[C@@H](O)[C@@H](OCC[N+](C)(C)C)NC(=O)C5C(O)[C@@H](C)CN5C(=O)[C@H]([C@@H](C)O)NC(=O)[C@H]([C@H](O)[C@@H](O)c5ccc(O)cc5)NC(=O)[C@@H]5C[C@@H](O)CN5C(=O)C(C(C)O)NC4=O)cc3)cc2)cc1 (stereo partly drawn) [CD101] ({pTerphenylCO(4''-OnC5H11)}-[Orn(4R-OH,5R-OCH2CH2NMe3+)][ξT][Hyp][hTyr(3S-OH,4S-OH)]T[X1]; lactam 1-C) the molecule record lists half-life as ~25 h

---

Procedure details: Plasma and lung epithelial lining fluid (ELF) pharmacokinetics in ICR mice
Assay type: in vivo
Condition parameters: ICR, mouse, lung epithelial lining fluid (ELF); 20 mg/kg IP; read-out: ELF half-life (converted)
Numbered stars: 1 amine (or outer) side, 2 acyl side, 3 side chain; on linkers, the order of the positions; unused ones are H or OH. Bridge positions count the residues as written; N and C are the ends. Square brackets hold non-standard residues; d marks the D form. Peptide text beside a SMILES is read from it. * marks the point of attachment. ξ: configuration not given here. Orn(4R-OH,5R-OCH2CH2NMe3+) = C[N+](C)(C)CCO[C@@H](N[*:3])[C@H](O)C[C@H](N[*:1])C(=O)[*:2]; pTerphenylCO(4''-OnC5H11) = CCCCCOc1ccc(-c2ccc(-c3ccc(C(=O)*)cc3)cc2)cc1; hTyr(3S-OH,4S-OH) = N[C@H](C(=O)O)[C@H](O)[C@@H](O)c1ccc(O)cc1; X1 = C[C@H]1CN([*:1])C(C(=O)[*:2])C1O; Hyp = O=C(O)[C@@H]1C[C@@H](O)CN1; ξT = CC(O)C(N)C(=O)O
Measurement name: half-life (h)
Express your answer in h, writing the number without its unit.

For CCCCCOc1ccc(-c2ccc(-c3ccc(C(=O)N[C@H]4C[C@@H](O)[C@@H](OCC[N+](C)(C)C)NC(=O)C5C(O)[C@@H](C)CN5C(=O)[C@H]([C@@H](C)O)NC(=O)[C@H]([C@H](O)[C@@H](O)c5ccc(O)cc5)NC(=O)[C@@H]5C[C@@H](O)CN5C(=O)C(C(C)O)NC4=O)cc3)cc2)cc1 (stereo partly drawn) [CD101] ({pTerphenylCO(4''-OnC5H11)}-[Orn(4R-OH,5R-OCH2CH2NMe3+)][ξT][Hyp][hTyr(3S-OH,4S-OH)]T[X1]; lactam 1-C) the compound record lists half-life as 31.9

---

Procedure details: Plasma and lung epithelial lining fluid (ELF) pharmacokinetics in ICR mice
Assay type: in vivo
Condition parameters: ICR, mouse, lung epithelial lining fluid (ELF), ip, 20 mg/kg, 20 mg/kg IP; total-drug; read-out: ELF/Plasma AUC ratio
Numbered stars: 1 amine (or outer) side, 2 acyl side, 3 side chain; on linkers, the order of the positions; unused ones are H or OH. Bridge positions count the residues as written; N and C are the ends. Square brackets hold non-standard residues; d marks the D form. Peptide text beside a SMILES is read from it. * marks the point of attachment. ξ: configuration not given here. Orn(4R-OH,5R-OCH2CH2NMe3+) = C[N+](C)(C)CCO[C@@H](N[*:3])[C@H](O)C[C@H](N[*:1])C(=O)[*:2]; pTerphenylCO(4''-OnC5H11) = CCCCCOc1ccc(-c2ccc(-c3ccc(C(=O)*)cc3)cc2)cc1; hTyr(3S-OH,4S-OH) = N[C@H](C(=O)O)[C@H](O)[C@@H](O)c1ccc(O)cc1; X1 = C[C@H]1CN([*:1])C(C(=O)[*:2])C1O; Hyp = O=C(O)[C@@H]1C[C@@H](O)CN1; ξT = CC(O)C(N)C(=O)O
Measurement name: Kp

For CCCCCOc1ccc(-c2ccc(-c3ccc(C(=O)N[C@H]4C[C@@H](O)[C@@H](OCC[N+](C)(C)C)NC(=O)C5C(O)[C@@H](C)CN5C(=O)[C@H]([C@@H](C)O)NC(=O)[C@H]([C@H](O)[C@@H](O)c5ccc(O)cc5)NC(=O)[C@@H]5C[C@@H](O)CN5C(=O)C(C(C)O)NC4=O)cc3)cc2)cc1 (stereo partly drawn) [CD101] ({pTerphenylCO(4''-OnC5H11)}-[Orn(4R-OH,5R-OCH2CH2NMe3+)][ξT][Hyp][hTyr(3S-OH,4S-OH)]T[X1]; lactam 1-C) the compound record lists Kp as 0.8

---

Procedure details: Monkey pharmacokinetics, SC and IV administration
Format: in vivo, cynomolgus monkeys
Condition parameters: female, cynomolgus monkey, plasma, sc, 30 mg/kg, animal 9707, F; 30 mg/kg SC single dose
Numbered stars: 1 amine (or outer) side, 2 acyl side, 3 side chain; on linkers, the order of the positions; unused ones are H or OH. Bridge positions count the residues as written; N and C are the ends. Square brackets hold non-standard residues; d marks the D form. Peptide text beside a SMILES is read from it. * marks the point of attachment. ξ: configuration not given here. Orn(4R-OH,5R-OCH2CH2NMe3+) = C[N+](C)(C)CCO[C@@H](N[*:3])[C@H](O)C[C@H](N[*:1])C(=O)[*:2]; pTerphenylCO(4''-OnC5H11) = CCCCCOc1ccc(-c2ccc(-c3ccc(C(=O)*)cc3)cc2)cc1; hTyr(3S-OH,4S-OH) = N[C@H](C(=O)O)[C@H](O)[C@@H](O)c1ccc(O)cc1; X1 = C[C@H]1CN([*:1])C(C(=O)[*:2])C1O; Hyp = O=C(O)[C@@H]1C[C@@H](O)CN1; ξT = CC(O)C(N)C(=O)O
Measurement name: half-life (h)
Express your answer in h, writing the number without its unit.

For CCCCCOc1ccc(-c2ccc(-c3ccc(C(=O)N[C@H]4C[C@@H](O)[C@@H](OCC[N+](C)(C)C)NC(=O)C5C(O)[C@@H](C)CN5C(=O)[C@H]([C@@H](C)O)NC(=O)[C@H]([C@H](O)[C@@H](O)c5ccc(O)cc5)NC(=O)[C@@H]5C[C@@H](O)CN5C(=O)C(C(C)O)NC4=O)cc3)cc2)cc1 (stereo partly drawn) [CD101] ({pTerphenylCO(4''-OnC5H11)}-[Orn(4R-OH,5R-OCH2CH2NMe3+)][ξT][Hyp][hTyr(3S-OH,4S-OH)]T[X1]; lactam 1-C) the molecule record lists half-life as 171
